conditions: read-out: Cytotoxicity 24 h LC50; 24 h
Measured CC50 values are reported for all entries that follow.
quantity.name: CC50 (µM)

[[record]]
molecule_smiles = "CCC(=O)OCOc1cc(O)c2c(=O)c(-c3ccc(O)cc3)coc2c1"
quantity_name = "CC50"
qualifier = ">"
endpoint_value = 30

[[record]]
molecule_smiles = "Cc1ccc(S(=O)(=O)OCCOCCOCCOc2cc(O)c3c(=O)c(-c4ccc(O)cc4)coc3c2)cc1"
quantity_name = "CC50"
qualifier = "="
endpoint_value = 20.7

[[record]]
molecule_smiles = "CCCC[N+](CCCC)(CCCC)CCCC.O=C([O-])COc1cc(O)c2c(=O)c(-c3ccc(O)cc3)coc2c1"
quantity_name = "CC50"
qualifier = "="
endpoint_value = 44.1

[[record]]
molecule_smiles = "CCCC[N+](CCCC)(CCCC)CCCC.O=C([O-])CCCC(=O)Oc1cc(O)c2c(=O)c(-c3ccc(O)cc3)coc2c1"
quantity_name = "CC50"
qualifier = ">"
endpoint_value = 30

[[record]]
molecule_smiles = "O=C([O-])CCCC(=O)Oc1ccc(-c2coc3cc(OCc4ccccc4)cc(O)c3c2=O)cc1.[Na+]"
quantity_name = "CC50"
qualifier = "="
endpoint_value = 18.8

